- Tested on: HeLa
- experiment_notes: Antiproliferative activity against human HeLa cells assessed as inhibition of cell growth incubated for 48 hrs by MTT assay
- Assay type: functional, cell-based
pIC50: −log10 of the molar value.
measured_metric: pIC50

Some molecules with known pIC50 results, for comparison:
- smiles_representation: "COc1ccc(-c2cc(N)nn2C(=O)c2cc(OC)c(OC)c(OC)c2)cc1OC"
  pIC50: 6.25
- smiles_representation: "COc1cc(C(=O)n2nc(N)cc2-c2cccc(C)c2)cc(OC)c1OC"
  pIC50: 6.70

a: COc1cc(C(=O)n2nc(N)cc2-c2ccc(F)cc2)cc(OC)c1OC
b: COc1cc(C(=O)n2nc(N)cc2-c2cccc(Br)c2)cc(OC)c1OC
Enquiry: Given a and given b , which shows the smaller recorded pIC50? Please indicate the selected item by its label.
Return: b

###

# IC50 at 48 h per record follows
- experiment_notes: Cytotoxicity against human L02 cells assessed as inhibition of cell growth incubated for 48 hrs by MTT assay
- Assay type: toxicity, cell-based
Number only, in µM; omit the unit.

Look over these answered cases.
- smiles_representation: "COc1ccc(-c2cc(N)nn2C(=O)c2ccc3c(c2)OCO3)cc1OC"
  IC50 at 48 h (µM): 2.09
- smiles_representation: "COc1cc(C(=O)n2nc(N)cc2-c2ccc(C)cc2)cc(OC)c1OC"
  IC50 at 48 h (µM): 2.73
- smiles_representation: "COc1ccc(/C=C\\c2cc(OC)c(OC)c(OC)c2)cc1O"
  IC50 at 48 h (µM): 3.2
- smiles_representation: "COc1cc(C(=O)n2nc(N)cc2-c2ccc(Cl)cc2)cc(OC)c1OC"
  IC50 at 48 h (µM): 2.73
- smiles_representation: "COc1cccc(-c2cc(N)nn2C(=O)c2cc(OC)c(OC)c(OC)c2)c1"
  IC50 at 48 h (µM): 5.68

Enquiry: Entry COc1cc(C(=O)n2nc(N)cc2-c2ccc(Br)cc2)cc(OC)c1OC has what IC50 at 48 h?
Return: 2.68

Enquiry: Param item: Nc1cc(-c2ccc(F)cc2)n(C(=O)c2ccc3c(c2)OCO3)n1
Return: 6.06

###

- Tested on: HeLa
- experiment_notes: Antiproliferative activity against human HeLa cells assessed as inhibition of cell growth incubated for 48 hrs by MTT assay
- Format: functional, cell-based
pIC50: −log10 of the molar value.
measured_metric: pIC50

Past entries and their recorded results:
- smiles_representation: "COc1cc(C(=O)n2nc(N)cc2-c2ccc(C)cc2)cc(OC)c1OC"
  pIC50: 6.96
- smiles_representation: "COc1cc(C(=O)n2nc(N)cc2-c2ccc(Cl)cc2)cc(OC)c1OC"
  pIC50: 5.59

1: COc1ccc(C(=O)n2nc(N)cc2-c2ccc(Cl)cc2)cc1OC
2: COc1ccc(C(=O)n2nc(N)cc2-c2ccc(Br)cc2)cc1OC
Enquiry: Select the item with the higher value of pIC50 from the options 1 and 2 listed. Respond with the label that goes with your answer.
Return: 2
(2: 5.81, 1: 5.54)

###

- System: HeLa
- experiment_notes: Antiproliferative activity against human HeLa cells assessed as inhibition of cell growth incubated for 48 hrs by MTT assay
- Format: functional, cell-based
measured_metric: IC50

Enquiry: // query IC50 value for entry COc1ccc(C(=O)n2nc(N)cc2-c2ccc(OC)c(OC)c2)cc1OC
Return: > 5 µM

Enquiry: Cool, now COc1ccc(C(=O)n2nc(N)cc2-c2cccc(Cl)c2)cc1OC
Return: > 5 µM

Enquiry: Now the compound COc1ccc(C(=O)n2nc(N)cc2-c2ccc(F)cc2)cc1OC
Return: > 5 µM

###

- experiment_notes: Cytotoxicity against human L02 cells assessed as inhibition of cell growth incubated for 48 hrs by MTT assay
- Format: toxicity, cell-based
Measured IC50 at 48 h, listed per entry.

- smiles_representation: "COc1ccc(C(=O)n2nc(N)cc2-c2ccc(OC)c(OC)c2)cc1OC"
  observed_value: "> 10 µM"
- smiles_representation: "COc1cc(C(=O)n2nc(N)cc2-c2cccc(Br)c2)cc(OC)c1OC"
  observed_value: "> 10 µM"

Okay, next one:
Enquiry: So what's the measured IC50 at 48 h for this one? Nc1cc(-c2ccc(Cl)cc2)n(C(=O)c2ccc3c(c2)OCO3)n1
Return: > 10 µM

Data provenance: ChEMBL document CHEMBL5512613
